Listed here are compounds together with their documented TGI.
system: RXF 393 renal; test: NCI tumour cell line growth inhibition, 48 h

// below: answered compounds
Compound: CCOC(CCNCC(OCC)OCC)OCC
Observable: TGI
Obs Value: > 10 µM
//
Compound: Cc1ccc(C(SCC(N)C(=O)O)(c2ccccc2)c2ccc(C)cc2)cc1 (stereo not given)
Observable: TGI
Obs Value: 3.52 µM
//
Compound: Oc1ccc2ccccc2c1/C=C/c1ccc2c(Br)cc(Br)c(O)c2n1
Observable: TGI
Obs Value: 24.7 µM
//
Compound: Cc1ccc2c(n1)C(=O)c1[nH]c3ccccc3c1C2=O
Observable: TGI
Obs Value: 55.4 µM
//
Compound: C=CC1CC12C(=O)C1OC2(C)C2C(=O)c3cc4ccccc4cc3C(=O)C12 (stereo not given)
Observable: TGI
Obs Value: 38 µM

Asked: Suppose we examine the compound C=C(C)C(CC=C(C)C)CC12CC(CC=C(C)C)C(C)(C)C(CC=C(C)C)(C(=O)C(Cc3ccc(O)c(O)c3)=C1O)C2=O (stereo not given) ; what TGI value has been reported?
Given back: > 100 µM

Asked: Suppose we examine the compound O=[N+]([O-])c1nccn1CC(O)c1ccc(F)cc1 (stereo not given) ; what TGI value has been reported?
Given back: > 100 µM

Asked: Suppose we examine the compound O=C1CCCC/C(=C/c2ccccc2)N1 ; what TGI value has been reported?
Given back: > 100 µM

Asked: Suppose we examine the compound Cc1cc(=O)[nH]c(NN2C(Cl)C(=O)C2c2cccc(O)c2)n1 (stereo not given) ; what TGI value has been reported?
Given back: > 100 µM

Asked: Suppose we examine the compound CCCCCN=Cc1c(O)c(O)c(C(C)C)c2cc(C)c(-c3c(C)cc4c(C(C)C)c(O)c(O)c(C=NCCCCC)c4c3O)c(O)c12 ; what TGI value has been reported?
Given back: 46.8 µM

====

Listed here are compounds together with their documented TGI.
system: M14 melanoma; experiment: NCI tumour cell line growth inhibition, 48 h
// units = µM; emit number, no label

Query Smiles: COC(=O)/C=C/c1cc(O)c2oc(-c3ccc(O)c(O)c3)c(C(=O)OC)c2c1
TGI (µM): 9.39

Please find the next compound below.
Asked: Suppose we examine the compound C=CCNC1=C2C[C@@H](C)C[C@@H](OC)[C@H](OC(=O)CCCCN)[C@H](C)/C=C(\C)[C@@H](OC(N)=O)[C@H](OC)/C=C\C=C(/C)C(=O)NC(=CC1=O)C2=O ; what TGI value has been reported?
Given back: 27

====

test system: TK-10 renal; experiment: NCI tumour cell line growth inhibition, 48 h
Observable: GI50

Asked: Suppose we examine the compound Oc1ccc(Cl)cc1Cc1cc(Cl)cc(Cl)c1O ; what GI50 value has been reported?
Given back: 7.88 µM

Asked: Suppose we examine the compound CC(=O)OC1Oc2ccccc2-c2oc(=O)c(-c3cc(=O)oc4cc(O)ccc34)cc21 (stereo not drawn) ; what GI50 value has been reported?
Given back: 32.6 µM

Asked: Suppose we examine the compound CNCCCn1cc(C2=C(c3cn(C)c4ccccc34)C(=O)NC2=O)c2ccccc21 ; what GI50 value has been reported?
Given back: 4.16 µM

====

tested on: IGROV1 ovarian; experiment: NCI tumour cell line growth inhibition, 48 h
Listed here are molecules together with their documented TGI.
// units = µM; emit number, no label

Asked: Suppose we examine the molecule C=C(C=O)C1CCC2(C(=O)O)CCC3(C)C(CCC4C5(C)CCC(O)C(C)(C)C5CCC43C)C12 (centres undefined) ; what TGI value has been reported?
Given back: 4.21

Asked: Suppose we examine the molecule O=C(c1ccccc1)c1cc(Cl)ccc1OCCCCN1CCN(CCCCOc2ccc(Cl)cc2C(=O)c2ccccc2)CC1 ; what TGI value has been reported?
Given back: 3.22

Asked: Suppose we examine the molecule O=[N+]([O-])c1ccc(C=C2C(Cl)=C(Cl)C(Cl)=C2Cl)cc1 ; what TGI value has been reported?
Given back: 4.41

Asked: Suppose we examine the molecule C=C(C)[C@@]12OC3(/C=C/C=C/CCCCC)O[C@@H]1[C@@H]1[C@@H]4O[C@]4(CO)[C@@H](O)[C@]4(O)C(=O)C(C)=C[C@H]4[C@@]1(O3)[C@H](C)[C@H]2OC(=O)c1ccccc1 ; what TGI value has been reported?
Given back: 3.18
